# Test Description: chemical genetic growth profiling, strain panel (AID 1159580);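 further: tested at 20 µM; growth read once vehicle control cultures reached saturation at 30 °C; 1 = growth at the plate median or of vehicle wells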
# Condition Set: S. cerevisiae deletion strains, growth OD, locus YML124C, strain tub3, stronger effect = lower value
Screen size: about 5,500 compounds; about 2,000 (36%) were called active. Roughly 18% stayed inconclusive and do not appear here. The list shows a part of the results.
Criterion: normalized growth strictly less than 1. Met: 1 (yes). Not met: 0 (no).

                                   compound   class
0  CC(=O)O[C@H]1CCC2(C)C3=C(CCC2C1(C)C)[C@@]1(C)CC[C@@H](C(C)CCC=C(C)C)[C@]1(C)CC3 (some centres not stated)  0 (no)
1                        CC(=O)Oc1ccc(O)cc1  0 (no)

In: Determine if CC(C)c1ccc2c(c1)CCC1[C@](C)(CN)CCC[C@]21C (some centres not stated) shows normalized growth strictly lower than 1.
Out: 1 (yes)

----------
# Test Description: chemical genetic growth profiling, strain panel (AID 1159580)
# Condition Set: S. cerevisiae deletion strains, growth OD, locus YAL013W, strain DEP1
The whole screen tested about 5,500 compounds, of which about 2,000 (36%) were called active. Roughly 18% stayed inconclusive and do not appear here. No stated cut-off is given here; in the data, active means normalized growth mostly below about 0.91 (no sharp cut-off); inconclusive means no clear call, values can overlap the other calls; inactive means mostly above about 0.92. The list shows a part of the results.
Please reply with one of these outcomes: t (active), f (inactive)

                                   compound  class
0                 Cn1c(CSc2ccccc2)n[nH]c1=S      f
1                 CCCc1cc(=O)[nH]c(=S)[nH]1      f
2                                   N=C(N)N      f
3                   Cc1cc(=O)[nH]c(=S)[nH]1      f
4                          NC(=S)CSc1ccccc1      f
5  CS(=O)(=O)c1ccc([C@@H](O)[C@@H](CO)NC(=O)C(Cl)Cl)cc1      f
6  Cc1ccc2c(c1)C1(C)CCCC(C)(C(=O)O)C1CC2 (centres undefined)      f
7                     Cc1cccc(C)c1N=C1SCCS1      f

In: Assay outcome for Cc1onc(-c2c(Cl)cccc2Cl)c1NC(=O)O/N=C\c1ccc(N(C)C)cc1 : what was it?
Out: t

In: What about CC(C)c1ccc2c(c1)CCC1[C@](C)(CN)CCC[C@]21C (some centres undefined) ?
Out: t

In: // next record OC[C@H]1O[C@@](CO)(O[C@@H]2O[C@H](CO)[C@@H](O)[C@H](O)[C@H]2O)[C@@H](O[C@@H]2O[C@H](CO)[C@@H](O)[C@H](O)[C@H]2O)[C@@H]1O
Out: f

In: And for Oc1cccc(O)c1 ?
Out: f

In: Same for Cc1cccc(Cn2nc(C(C)(C)C)cc2C(=O)O)c1
Out: f

In: // next record O=c1[nH]cnc2ccsc12
Out: f

----------
Would you kindly list normalized growth for each of these compounds?
# Test Description: chemical genetic growth profiling, strain panel (AID 1159580)
# Condition Set: S. cerevisiae deletion strains, growth OD, locus YFR010W, strain ubp6, stronger effect = lower value
The whole screen tested about 5,500 compounds, of which about 2,000 (36%) were called active. Not shown: some 18% with an inconclusive outcome. This is one part of the list.
Numbers only.

// solved cases for normalized growth follow
In [3]: df
Out[3]:
                                   compound  meas_value
0                            O=C(O)c1cccnc1       0.995
1  CC(CCc1ccccc1)NCC(O)c1ccc(O)c(C(N)=O)c1 (stereo unspecified)           1
2           COc1cc(C/C=C/c2ccccc2)c(OC)cc1O       0.944
3  CS(=O)(=O)Nc1ccc([N+](=O)[O-])cc1Oc1ccccc1           1
4  CC(C)=CC1C(C(=O)O)C1(C)C (stereo unspecified)       0.972

Okay, now this compound:
In: Please give the measured normalized growth for this compound: Cc1c(C)c2c(c(C)c1O)CCC(C)(CCCC(C)CCCC(C)CCCC(C)C)O2 (stereo unspecified)
Out: 0.988

----------
# Test Description: chemical genetic growth profiling, strain panel (AID 1159580);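 further: tested at 20 µM; growth read once vehicle control cultures reached saturation at 30 °C; 1 = growth at the plate median or of vehicle wells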
# Condition Set: S. cerevisiae deletion strains, growth OD, locus YLR262C, strain YPT6
About 2,000 (36%) of roughly 5,500 compounds were called active. Roughly 18% stayed inconclusive and do not appear here. Cut-off read from the data, not from the text of the source: active = normalized growth mostly below about 0.91 (no sharp cut-off); inconclusive = no clear call, values can overlap the other calls; inactive = mostly above about 0.92. The list shows a part of the results.
Lab note: assign the record to one of active, inactive

>>> print(df.to_string())
                                   compound     class
0    CN(C)CCCN1c2ccccc2Sc2ccc(C(F)(F)F)cc21  inactive
1  COc1ccc(C2Sc3ccccc3N(CCN(C)C)C(=O)C2OC(C)=O)cc1 (stereo not given)  inactive

In: Check the results log: what was the call for CN(C)CCCN1c2ccccc2Sc2ccc(Cl)cc21 ?
Out: active

In: Repeat for the following compound: CC(C)CCCC(C)[C@H]1CCC2C3CC=C4CC(=O)CC[C@]4(C)C3CC[C@@]21C (stereo not given in full)
Out: inactive

In: Entry CC(C)CCCC(C)C1CCC2C3CC(=O)[C@H]4C[C@@H](O)CC[C@]4(C)C3CC[C@]12C (stereo not given in full) please
Out: inactive

In: Similarly, COC(=O)c1c(C)c2c(c(C)c1OC)OC(=O)c1c(C)c(Cl)c(OC)c(Cl)c1O2 ?
Out: inactive

In: Also CC(C)CCCC(C)[C@H]1CCC2C3CC=C4C[C@@H](O)CC[C@]4(C)C3CC[C@@]21C (stereo not given in full) ?
Out: inactive

----------
# Test Description: chemical genetic growth profiling, strain panel (AID 1159580);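 further: tested at 20 µM; growth read once vehicle control cultures reached saturation at 30 °C; 1 = growth at the plate median or of vehicle wells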
# Condition Set: S. cerevisiae deletion strains, growth OD, locus YHR013C, strain ard1
Out of some 5,500 compounds screened, about 2,000 (36%) were called active. Roughly 18% stayed inconclusive and do not appear here. No stated cut-off is given here; in the data, active means normalized growth mostly below about 0.91 (no sharp cut-off); inconclusive means no clear call, values can overlap the other calls; inactive means mostly above about 0.92. This is one part of the list.
Pick one and only one: active, inactive

>>> df
                  compound     class
0  COc1cc(C(C)=O)cc(OC)c1O  inactive

In: I would be grateful if you could indicate the recorded call for CC(=O)c1cc(CC=C(C)C)c(O)c(CC=C(C)C)c1 .
Out: inactive

In: What do we get for CC(C)(C)NCC(O)c1ccc(O)c(CO)c1 (stereo not drawn) ?
Out: inactive

In: // query: CC(CCC(=O)O)[C@H]1CCC2C3CC[C@@H]4C[C@H](O)CC[C@]4(C)C3C=C[C@@]21C (stereo partly drawn)
Out: inactive

In: What about O=C1NC(O)=NC1(c1ccccc1)c1ccccc1 ?
Out: inactive

In: What do you have for Oc1cccc(O)c1 ?
Out: inactive

In: // repeat for CC(CCC(=O)O)[C@H]1CCC2C3C(=O)C[C@@H]4CC(=O)CC[C@]4(C)C3CC(=O)[C@@]21C (stereo partly drawn) and report
Out: inactive

In: What would you report for Cc1c(C)c2c(c(C)c1O)CCC(C)(CCCC(C)CCCC(C)CCCC(C)C)O2 (stereo not drawn) ?
Out: inactive

In: And COc1ccccc1OCC(O)CO (stereo not drawn) ?
Out: inactive

In: Request: O=P1(NCCCl)OCCCN1CCCl (stereo not drawn)
Out: inactive

In: Can you check CC(=O)c1ccc(O)c(CC=C(C)C)c1 next?
Out: inactive

In: Could you do the same for CC1=CC(=O)c2ccccc2C1=O , please?
Out: active

In: Further, for N=C(N)N ?
Out: inactive

----------
# Test Description: chemical genetic growth profiling, strain panel (AID 1159580);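 further: tested at 20 µM; growth read once vehicle control cultures reached saturation at 30 °C; 1 = growth at the plate median or of vehicle wells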
# Condition Set: S. cerevisiae deletion strains, growth OD, locus YOR061W, strain CKA2, stronger effect = lower value
In all, about 5,500 compounds went through this assay and about 2,000 (36%) were called active. About 18% were inconclusive and are not listed. Some of the results follow.
Kindly state normalized growth for each of the entries shown.
Give bare numbers.

Recorded results for 4 molecules are shown here.
                                   molecule  meas_value
0  CC(C)=CCCC(C)C1CC[C@@]2(C)C3=C(CC[C@]12C)C1(C)CC[C@H](O)C(C)(C)C1CC3 (stereo not given in full)        1.01
1  CC(C)CCCC(C)C1CC[C@@]2(C)C3=C(CC[C@]12C)[C@@]1(C)CC[C@H](O)C(C)(C)C1CC3 (stereo not given in full)        1.01
2  O=C(Nc1ccc(F)cc1F)c1cc(Cl)c(-n2cccc2)c(Cl)c1       0.926
3  CC(C)=CCCC(C)[C@@H]1CC[C@]2(C)C3=C(CC[C@@]12C)C1(C)CC[C@H](O)C(C)(C)C1CC3 (stereo not given in full)       0.994

For the next question, use this molecule.
In: Name the recorded normalized growth for NC1=NCCN1CC(=O)O .
Out: 0.958
